B1: TPR t1 (parent)
chain: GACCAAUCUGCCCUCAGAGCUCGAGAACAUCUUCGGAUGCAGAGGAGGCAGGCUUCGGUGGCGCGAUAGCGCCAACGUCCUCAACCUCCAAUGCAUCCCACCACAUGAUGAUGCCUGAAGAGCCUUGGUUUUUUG

Variants of: B1
Assay: polymerase ribozyme fitness, log enrichment relative to wild type (log ratio); higher = more active; in vitro selection for triplet polymerase activity
Assign class by polymerase ribozyme fitness (log ratio): not lower than -1 means True; lower than -1 means False.

{"columns": ["mutationId", "groupLabel"],
 "data": [
  ["C15G C79U", "False"],
  ["C20U A91G", "False"]
]}

Query :: Would you say C56G U132C shows polymerase ribozyme fitness (log ratio) at minimum -1?
Result :: True

Query :: Would you say C4A G36C G65U C104U A119G A121U G128U U129A shows polymerase ribozyme fitness (log ratio) at minimum -1?
Result :: False

Query :: Would you say G10U A37U shows polymerase ribozyme fitness (log ratio) at minimum -1?
Result :: True

Query :: Would you say G10C A37U C72A shows polymerase ribozyme fitness (log ratio) at minimum -1?
Result :: True

Where do these numbers come from? They come from the RNAGym collection of RNA variant scans (doi:10.1073/pnas.2313332121).
